Target: hV1a receptor (Homo sapiens, UniProt P37288)
Construct: expressed in transfected cells; host or cells: HEK-293
Sequence (P37288 whole entry): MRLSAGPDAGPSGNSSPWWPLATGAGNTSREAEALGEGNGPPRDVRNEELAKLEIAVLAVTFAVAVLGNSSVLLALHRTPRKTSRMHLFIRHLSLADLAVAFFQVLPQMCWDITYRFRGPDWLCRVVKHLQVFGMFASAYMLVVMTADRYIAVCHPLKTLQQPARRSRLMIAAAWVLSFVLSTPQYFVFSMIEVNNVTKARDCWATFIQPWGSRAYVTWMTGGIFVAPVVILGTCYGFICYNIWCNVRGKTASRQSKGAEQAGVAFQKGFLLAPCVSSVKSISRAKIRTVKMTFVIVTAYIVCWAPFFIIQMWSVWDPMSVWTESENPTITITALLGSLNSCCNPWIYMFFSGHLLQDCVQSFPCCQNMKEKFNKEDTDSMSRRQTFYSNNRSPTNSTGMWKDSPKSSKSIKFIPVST
Test: hV1a receptor transcriptional reporter (luciferase) agonist assay
Assay type: cell-based
Settings: HEK-293 cells transiently transfected with hV1a receptor, 5 hours exposure, geometric mean; read-out: EC50 hV1a receptor
Procedure: Agonist activity of compounds on the hV1a receptor was determined in a transcriptional reporter assay by transiently transfecting a hV1a receptor expression DNA into HEK-293 cells in concert with a reporter DNA containing intracellular calcium responsive promoter elements regulating expression of firefly luciferase. See Boss, V., Talpade, D. J., Murphy, T. J. J. Biol. Chem. 1996, May 3; 271(18), 10429-10432 for further guidance on this assay. […]
Positions of bridges follow the written chain, without caps; N, C: chain ends. Non-standard residues stand in square brackets, D forms with d. Residues, ends and D or L forms follow the SMILES beside them. 2Thi = N[C@@H](Cc1cccs1)C(=O)O; Orn = NCCC[C@H](N)C(=O)O; Dab = NCC[C@H](N)C(=O)O
reported.metric: EC50 (nM)

[[record]]
compound = "CC[C@H](C)[C@@H]1NC(=O)[C@H](Cc2cccs2)NC(=O)[C@@H](N)CSSC[C@@H](C(=O)N2CCC[C@H]2C(=O)N[C@@H](CCN)C(=O)NCC(N)=O)NC(=O)[C@H](CC(N)=O)NC(=O)[C@H](CCC(N)=O)NC1=O [Compound 14] (H-C[2Thi]IQNCP[Dab]G-NH2; disulfide 1-6)"
reported_metric = "EC50"
unit_spec = "nM"
reported_result = 0.54

[[record]]
compound = "CCNC(=O)CC[C@@H]1NC(=O)[C@H]([C@@H](C)CC)NC(=O)[C@H](Cc2ccccc2)NC(=O)[C@@H](N)CSSC[C@@H](C(=O)N2CCC[C@H]2C(=O)N[C@@H](CCCN)C(=O)NCC(N)=O)NC(=O)[C@H](CC(N)=O)NC1=O [Compound 20] (H-CFIE(NHEt)NCP[Orn]G-NH2; disulfide 1-6; N-terminus and C-terminus assumed)"
reported_metric = "EC50"
unit_spec = "nM"
reported_result = 39.3

[[record]]
compound = "CC[C@H](C)[C@@H]1NC(=O)[C@H](Cc2cccs2)NC(=O)[C@@H](N)CSSC[C@@H](C(=O)N2CCC[C@H]2C(=O)N[C@@H](CCCN)C(=O)NCC(N)=O)NC(=O)[C@H](CC(N)=O)NC(=O)[C@H](CC(N)=O)NC1=O [Compound 33] (H-C[2Thi]INNCP[Orn]G-NH2; disulfide 1-6; N-terminus and C-terminus assumed)"
reported_metric = "EC50"
unit_spec = "nM"
reported_result = 14.6

